Biological target: Pol III (PolC) from S. aureus (Staphylococcus aureus, UniProt P0C1P9)
Construct: His tag (pET15b vector) (N)
Sequence (P0C1P9 1-1435): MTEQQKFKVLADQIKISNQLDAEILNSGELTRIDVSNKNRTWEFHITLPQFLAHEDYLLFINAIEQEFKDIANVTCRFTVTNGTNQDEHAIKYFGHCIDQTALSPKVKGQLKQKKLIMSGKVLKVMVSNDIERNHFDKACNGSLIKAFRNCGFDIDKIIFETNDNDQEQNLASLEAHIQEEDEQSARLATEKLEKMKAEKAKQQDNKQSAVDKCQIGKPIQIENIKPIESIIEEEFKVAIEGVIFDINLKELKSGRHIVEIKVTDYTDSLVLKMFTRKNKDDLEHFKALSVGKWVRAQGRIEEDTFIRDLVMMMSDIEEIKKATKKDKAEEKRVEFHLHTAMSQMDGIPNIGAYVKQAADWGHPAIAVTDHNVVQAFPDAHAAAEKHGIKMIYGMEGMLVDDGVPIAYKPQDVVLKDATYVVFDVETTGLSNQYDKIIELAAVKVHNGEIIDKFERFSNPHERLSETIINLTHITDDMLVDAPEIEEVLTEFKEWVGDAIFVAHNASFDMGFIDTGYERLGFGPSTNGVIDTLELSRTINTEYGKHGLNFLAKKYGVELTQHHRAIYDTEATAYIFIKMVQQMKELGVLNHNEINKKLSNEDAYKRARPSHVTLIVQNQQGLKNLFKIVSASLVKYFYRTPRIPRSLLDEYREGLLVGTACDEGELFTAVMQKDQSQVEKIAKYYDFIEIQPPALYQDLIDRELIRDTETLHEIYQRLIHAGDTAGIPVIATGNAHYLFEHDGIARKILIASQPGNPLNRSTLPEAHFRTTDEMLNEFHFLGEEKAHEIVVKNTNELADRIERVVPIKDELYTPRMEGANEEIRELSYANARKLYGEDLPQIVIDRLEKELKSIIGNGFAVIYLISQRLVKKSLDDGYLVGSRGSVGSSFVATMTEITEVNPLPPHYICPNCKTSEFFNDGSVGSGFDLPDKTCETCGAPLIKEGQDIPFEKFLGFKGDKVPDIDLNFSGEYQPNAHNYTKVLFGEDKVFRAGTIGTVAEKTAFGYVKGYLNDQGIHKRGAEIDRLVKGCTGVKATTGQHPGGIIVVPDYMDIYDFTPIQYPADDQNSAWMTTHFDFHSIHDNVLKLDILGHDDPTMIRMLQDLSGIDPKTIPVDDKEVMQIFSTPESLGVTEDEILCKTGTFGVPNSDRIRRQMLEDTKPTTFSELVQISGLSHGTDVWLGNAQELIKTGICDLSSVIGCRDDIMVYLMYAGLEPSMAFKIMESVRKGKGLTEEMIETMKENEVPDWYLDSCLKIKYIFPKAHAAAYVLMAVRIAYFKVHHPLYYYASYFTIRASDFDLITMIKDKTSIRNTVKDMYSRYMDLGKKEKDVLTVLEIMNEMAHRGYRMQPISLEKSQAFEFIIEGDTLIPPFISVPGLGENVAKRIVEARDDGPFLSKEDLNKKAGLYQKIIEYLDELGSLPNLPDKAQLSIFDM
Assay: Determination of the IC50 for Polymerase III (PolC), coupled pyrophosphate/ATP sulfurylase/luciferase assay
Settings: purified His-tagged PolC 2 nM, activated calf thymus DNA, 30° C. 30 min, luminescence readout
pIC50: −log10 of the molar value.
pIC50 of 7 or higher: 1. Under 7: -1.

Answered cases to consult:
- Structure Smiles: "CCc1cc(Nc2cc(=O)n(CCSCC(=O)N3CCN(c4ccc([N+](=O)[O-])cc4)CC3)c(=O)[nH]2)ccc1C"
  Group Label: -1
- Structure Smiles: "CCc1cc(Nc2cc(=O)n(CCSCc3nnc(C)s3)c(=O)[nH]2)ccc1C"
  Group Label: 1

q: Test whether the compound CCc1cc(Nc2cc(=O)n(CCCSCC(=O)N3CCN(c4ccc(F)cc4)CC3)c(=O)[nH]2)ccc1C records pIC50 of 7 or higher.
a: -1
